TARGET OF ASSAY: T1, human Claudin18.2 (human, UniProt P56856 1-261)
T1 sequence (looked up): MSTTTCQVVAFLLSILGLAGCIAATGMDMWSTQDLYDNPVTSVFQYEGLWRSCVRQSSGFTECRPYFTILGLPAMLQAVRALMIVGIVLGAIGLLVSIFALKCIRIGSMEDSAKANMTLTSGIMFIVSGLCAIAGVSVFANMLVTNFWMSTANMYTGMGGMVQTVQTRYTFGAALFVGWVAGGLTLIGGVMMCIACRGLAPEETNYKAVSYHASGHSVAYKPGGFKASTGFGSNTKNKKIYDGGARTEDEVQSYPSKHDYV
MEASUREMENT PROTOCOL: cell-based or functional assay
PROPERTY NAME: IC50 of in vitro cell killing on MC38-hClaudin18.2 cells (AlamarBlue cell viability) (nM)
Give bare numbers, in nM.

Documented IC50 of in vitro cell killing on MC38-hClaudin18.2 cells (AlamarBlue cell viability) of 9D1-LD-66 (antibody, human IgG1, kappa, V domains shown, LD-66 linker-drug (Exatecan) on reduced interchain cysteines (Conjugation Method 1, DAR 8)) VH: QIQLVQSGAEVKKPGASVKISCKASGYSFTDYHMNWVRQAPGKGLEWIGNIDPYYGSPTYNHKFKGRVTLTVDTSTSTAYMELSSLRSEDTAVYYCANYGRGNSFPYWGQGTLVTVSS VL: DIVMTQSPSSLAVSLGERATINCKSSQSLLNSGNQRNYLTWYQQKPGQPPKLLIYWASTRESGVPDRFSGSGSGTDFTLTISSLQAEDVAVYYCQNDYSFPFTFGQGTKLEIKR : 1.09

Shifting focus to the binder that follows.
Documented IC50 of in vitro cell killing on MC38-hClaudin18.2 cells (AlamarBlue cell viability) of 9D1-LD-73 (antibody, human IgG1, kappa, V domains shown, LD-73 linker-drug (Exatecan, PEG side chain) on reduced interchain cysteines (Conjugation Method 1, DAR 8)) VH: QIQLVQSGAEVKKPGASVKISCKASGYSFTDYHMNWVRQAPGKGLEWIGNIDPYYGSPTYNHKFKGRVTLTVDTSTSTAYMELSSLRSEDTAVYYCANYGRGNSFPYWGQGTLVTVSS VL: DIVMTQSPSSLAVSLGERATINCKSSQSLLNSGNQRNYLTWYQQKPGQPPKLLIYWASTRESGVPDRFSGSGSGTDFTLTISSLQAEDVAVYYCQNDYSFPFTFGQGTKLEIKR : 1.4
